Value source: patent US20240398942A1

Target: T1, recombinant human CD40-his (Acro biosystems, Cat. No. CD0-H5228) (human, UniProt P25942 21-193)
T1 construct: Bought protein; also called human CD40-his protein; not shown: His tag
T1 sequence (P25942 21-193 limits assumed): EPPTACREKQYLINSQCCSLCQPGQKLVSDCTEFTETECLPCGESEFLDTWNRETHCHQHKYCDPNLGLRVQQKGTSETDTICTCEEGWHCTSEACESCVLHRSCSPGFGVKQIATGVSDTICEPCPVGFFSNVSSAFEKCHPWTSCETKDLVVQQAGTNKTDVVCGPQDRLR
Test: SPR (Biacore T200), antibody captured on anti-human IgG chip, CD40-his as analyte, 1:1 fit
Quantity name: koff (s⁻¹)
Numbers only, in s⁻¹.

Worked cases, koff given:
humanized antibody huC1H1-V1 (antibody, human IgG2, kappa, V domains shown, Human IgG2 / kappa) VH: EVQLVESGGGLVKPGGSLRLSCAASGFTFSNYGISWVRQAPGKGLEWVASISSGGDNTYYPDNVKGRFTISRDNAKNSLYLQMNSLRAEDTAVYYCARAGEKAMDYWGQGTLVTVSS VL: EIVLTQSPATLSLSPGERATLSCRASQTINNNLHWYQQKPGQAPRLLIKYASQSISGIPARFSGSGSGTDFTLTISSLEPEDFAVYFCQQFSSWPLTFGGGTKVEIKR
0.00248
BM1 (dacetuzumab) (antibody, human IgG1, kappa, V domains shown, Benchmark antibody, prepared in-house; also called CD40-BM1; benchmark) VH: EVQLVESGGGLVQPGGSLRLSCAASGYSFTGYYIHWVRQAPGKGLEWVARVIPNAGGTSYNQKFKGRFTLSVDNSKNTAYLQMNSLRAEDTAVYYCAREGIYWWGQGTLVTVSS VL: DIQMTQSPSSLSASVGDRVTITCRSSQSLVHSNGNTFLHWYQQKPGKAPKLLIYTVSNRFSGVPSRFSGSGSGTDFTLTISSLQPEDFATYFCSQTTHVPWTFGQGTKVEIKR
0.00756

Could you tell me koff for each of these binders? They are listed below.
1. humanized antibody huC1H1-V2 (antibody, human IgG2, kappa, V domains shown, Human IgG2 / kappa) VH: EVQLVESGGGLVKPGGSLRLSCAASGFTFSNYGISWVRQAPGKGLEWVSSISSGGDNTYYPDNVKGRFTISRDNAKNSLYLQMNSLRAEDTAVYYCARAGEKAMDYWGQGTLVTVSS VL: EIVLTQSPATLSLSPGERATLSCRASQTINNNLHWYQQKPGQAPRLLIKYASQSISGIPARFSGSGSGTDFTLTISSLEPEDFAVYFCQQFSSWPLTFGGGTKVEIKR
2. chimeric antibody C1H1 (antibody, human IgG1, kappa, V domains shown, also called Chimeric C1H1) VH: EVKLVESGGGLVKPGASLKLSCAASGFTFSNYGISWVRQTSDKRLEWVASISSGGDNTYYPDNVKGRFTISRENAKNTLYLQMSSLKSEDTALYYCARAGEKAMDYWGQGTSVTVSS VL: DIVLTQSPVTLSVTPGDSVSLSCRASQTINNNLHWYQQKSHESPRLLIKYASQSISGIPSRFSGSGSGTDFTLSINSVETEDFGIYFCQQFSSWPLTFGAGTKLELKR

output:
0.0027
0.00222
